Test system: F380Y/beta2Delta
Assay: modulators of BK channel variants, profiling panel, selectivity assay, cell-based, U2OS BacMam, thallium flux, beta subunits (AID 1259406);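 note: initial slope of Thallos dye fluorescence rise after thallium is added; log ratio against the mean of 0.3% DMSO vehicle wells on the same plate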
Settings: at 30 µM
Activity calls are given as the source filed them.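 Rule for the calls: active = thallium flux through the channel raised or lowered by more than 3 SD from vehicle-only wells, actives on both sides; inactive = the rest.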
RESULT_TYPE: log fold change Tl+ flux

Task item: Identify measured log fold change Tl+ flux obtained with F380Y/beta2Delta for `CSc1nnc(SCC(=O)c2ccc3c(c2)OCCO3)s1` .
Reply: -0.0362 (inactive)

Task item: Identify measured log fold change Tl+ flux obtained with F380Y/beta2Delta for `O=C(O)COCCN1CCN([C@H](c2ccccc2)c2ccc(Cl)cc2)CC1` .
Reply: 0.0598 (inactive)

Task item: Identify measured log fold change Tl+ flux obtained with F380Y/beta2Delta for `CCN1CCC(O)(C#Cc2ccccc2)CC1` .
Reply: -0.0113 (inactive)

Task item: Identify measured log fold change Tl+ flux obtained with F380Y/beta2Delta for `O=C(Nc1csc(Cc2c(Cl)cccc2Cl)n1)NN1CCOCC1` .
Reply: 0.0515 (inactive)

Task item: Identify measured log fold change Tl+ flux obtained with F380Y/beta2Delta for COC(=O)C(O)(c1ccc(NC(=O)c2ccc(Cl)c(Cl)c2)cc1)C(F)(F)F (stereo unspecified) .
Reply: -0.0715 (inactive)

Task item: Identify measured log fold change Tl+ flux obtained with F380Y/beta2Delta for `CCc1[nH]c(=S)[nH]c(=O)c1C#N` .
Reply: 0.0255 (inactive)

Task item: Identify measured log fold change Tl+ flux obtained with F380Y/beta2Delta for CNC(=O)Oc1ccc2c(c1)[C@]1(C)CCN(C)C1N2C (stereo partly specified) .
Reply: -0.00825 (inactive)

Task item: Identify measured log fold change Tl+ flux obtained with F380Y/beta2Delta for `N#CC(NCc1ccccc1Cl)=C(C#N)NCc1c(F)cccc1Cl` .
Reply: -0.0204 (inactive)

Task item: Identify measured log fold change Tl+ flux obtained with F380Y/beta2Delta for `CNCC[C@@H](Oc1ccccc1C)c1ccccc1` .
Reply: 0.0334 (inactive)

Task item: Identify measured log fold change Tl+ flux obtained with F380Y/beta2Delta for COC(=O)CC1(C(=O)OC)Oc2ccc(Br)cc2C(=O)N1c1cccc(Cl)c1Cl (stereo unspecified) .
Reply: -0.0998 (inactive)

Task item: Identify measured log fold change Tl+ flux obtained with F380Y/beta2Delta for `C=CC1=C(C(=O)O)N2C(=O)[C@@H](NC(=O)C(=NOCC(=O)O)c3csc(N)n3)[C@H]2SC1` .
Reply: 0.02 (inactive)

Task item: Identify measured log fold change Tl+ flux obtained with F380Y/beta2Delta for `O=S(=O)(Nc1cc(Cl)c(-n2cccc2)cc1Oc1ccc(Cl)cc1)c1ccc(Cl)cc1` .
Reply: 0.00907 (inactive)

Task item: Identify measured log fold change Tl+ flux obtained with F380Y/beta2Delta for CC(C)C1COC(c2cccc(C3=NC(C(C)C)CO3)n2)=N1 (stereo unspecified) .
Reply: 0.00332 (inactive)

Task item: Identify measured log fold change Tl+ flux obtained with F380Y/beta2Delta for `COC(=O)c1c(S(=O)(=O)N2CCOCC2)c(C)n(C)c1C` .
Reply: -0.00469 (inactive)

Task item: Identify measured log fold change Tl+ flux obtained with F380Y/beta2Delta for `COc1cc(N)c(Cl)cc1C(=O)N[C@@H]1CCN(CCCOc2ccc(F)cc2)C[C@@H]1OC` .
Reply: 0.0148 (inactive)

Task item: Identify measured log fold change Tl+ flux obtained with F380Y/beta2Delta for `CCOC(=O)c1cnc(C(F)(F)F)nc1NN=Cc1c(Cl)cccc1Cl` .
Reply: -0.0116 (inactive)

Task item: Identify measured log fold change Tl+ flux obtained with F380Y/beta2Delta for `CC(C)(C)c1cc(-c2nc(-c3ccc(C(F)(F)F)cc3)no2)n(Cc2ccccc2)n1` .
Reply: -0.0472 (inactive)

Task item: Identify measured log fold change Tl+ flux obtained with F380Y/beta2Delta for `O=C1C(c2c(O)[nH]c3ccccc23)=Nc2ccccc21` .
Reply: -0.012 (inactive)

Task item: Identify measured log fold change Tl+ flux obtained with F380Y/beta2Delta for Cc1onc(-c2ccccc2)c1C(=O)NC1C(=O)N2C1SC(C)(C)C2C(=O)O (stereo unspecified) .
Reply: -0.0125 (inactive)

Task item: Identify measured log fold change Tl+ flux obtained with F380Y/beta2Delta for `O=C1c2c(O)cc(O)cc2O[C@H](c2ccc(O)c(O)c2)[C@H]1O` .
Reply: 0.00163 (inactive)

Task item: Identify measured log fold change Tl+ flux obtained with F380Y/beta2Delta for `COc1cc(C)c(/C=C/C(C)=C/C=C/C(C)=C/C(=O)O)c(C)c1C` .
Reply: 0.35 (active)

Task item: Identify measured log fold change Tl+ flux obtained with F380Y/beta2Delta for `Clc1ccc(Sc2cn[nH]c2-c2ccc3c(c2)OCCO3)cc1` .
Reply: -0.0116 (inactive)

Task item: Identify measured log fold change Tl+ flux obtained with F380Y/beta2Delta for `NC(=O)c1nnn(-c2ccc([N+](=O)[O-])cc2)c1-c1ccccc1` .
Reply: 0.0187 (inactive)

Task item: Identify measured log fold change Tl+ flux obtained with F380Y/beta2Delta for `CCN(CC)CCOc1ccc(C(=C(Cl)c2ccccc2)c2ccccc2)cc1` .
Reply: 0.0152 (inactive)

Task item: Identify measured log fold change Tl+ flux obtained with F380Y/beta2Delta for `N#Cc1c(F)cccc1NC1CCN(Cc2ccccc2)CC1` .
Reply: -0.0626 (inactive)

Task item: Identify measured log fold change Tl+ flux obtained with F380Y/beta2Delta for `COC(=O)c1cc(-c2nc(-c3ccc(Cl)cc3Cl)cs2)c(SC)s1` .
Reply: 0.0439 (inactive)

Task item: Identify measured log fold change Tl+ flux obtained with F380Y/beta2Delta for Cc1c(C(=O)CSc2n[nH]c(=O)n2C(C)c2ccccc2)sc2ccc(Cl)cc12 (stereo unspecified) .
Reply: 0.0136 (inactive)

Task item: Identify measured log fold change Tl+ flux obtained with F380Y/beta2Delta for `C=CCc1ccc(O)c(-c2ccc(O)c(CC=C)c2)c1` .
Reply: 0.34 (active)

Task item: Identify measured log fold change Tl+ flux obtained with F380Y/beta2Delta for `CCCCCc1c(C)nc(-c2ccccn2)[nH]c1=O` .
Reply: -0.0415 (inactive)

Task item: Identify measured log fold change Tl+ flux obtained with F380Y/beta2Delta for `CCc1nc2ccccc2nc1N1CCN(S(=O)(=O)c2ccc(Cl)cc2)CC1` .
Reply: -0.00426 (inactive)

Task item: Identify measured log fold change Tl+ flux obtained with F380Y/beta2Delta for `COC(=O)c1ccc(S(=O)(=O)NNc2ncnc3cc(C(C)(C)C)sc23)n1C` .
Reply: 0.0347 (inactive)

Task item: Identify measured log fold change Tl+ flux obtained with F380Y/beta2Delta for `O=c1c(O[C@@H]2O[C@H](CO)[C@H](O)[C@H](O)[C@H]2O)c(-c2ccc(O)c(O)c2)oc2cc(O)cc(O)c12` .
Reply: -0.0335 (inactive)

Task item: Identify measured log fold change Tl+ flux obtained with F380Y/beta2Delta for `O=S(=O)(CCN1CCN(Cc2ccccc2)CC1)c1ccc(F)cc1` .
Reply: 0.0237 (inactive)

Task item: Identify measured log fold change Tl+ flux obtained with F380Y/beta2Delta for `CC(=O)C(=CN(C)C)Sc1ccc(Cl)cc1` .
Reply: 0.00502 (inactive)

Task item: Identify measured log fold change Tl+ flux obtained with F380Y/beta2Delta for `Cc1cc2c(cc1C)CSC(c1ccco1)SC2` .
Reply: 0.0283 (inactive)

Task item: Identify measured log fold change Tl+ flux obtained with F380Y/beta2Delta for `Cc1cc2c(s1)Nc1ccccc1N=C2N1CCN(C)CC1` .
Reply: 0.0704 (inactive)

Task item: Identify measured log fold change Tl+ flux obtained with F380Y/beta2Delta for `O=C(CSCc1csc2ccccc12)NCc1ccc2c(c1)OCO2` .
Reply: -0.0281 (inactive)

Task item: Identify measured log fold change Tl+ flux obtained with F380Y/beta2Delta for `Cc1cc(-c2nn(C)c(=O)c3ccccc23)cc(C)c1O` .
Reply: 0.00813 (inactive)

Task item: Identify measured log fold change Tl+ flux obtained with F380Y/beta2Delta for `NC1(C(=O)O)CCSCC1` .
Reply: -0.0146 (inactive)

Task item: Identify measured log fold change Tl+ flux obtained with F380Y/beta2Delta for `Cc1nn(Cc2nnc(-c3cc(C(F)(F)F)cc(C(F)(F)F)c3)o2)c(C)c1Br` .
Reply: -0.0793 (inactive)

Task item: Identify measured log fold change Tl+ flux obtained with F380Y/beta2Delta for `CC(=O)N(C(C)=O)c1ccc2c3c(cccc13)CC2` .
Reply: -0.0119 (inactive)
